Collected inhibition values appear next to each entry.
studyTarget: PGK1 (human) (UniProt P00558)
Sequence (P00558 whole entry, looked up): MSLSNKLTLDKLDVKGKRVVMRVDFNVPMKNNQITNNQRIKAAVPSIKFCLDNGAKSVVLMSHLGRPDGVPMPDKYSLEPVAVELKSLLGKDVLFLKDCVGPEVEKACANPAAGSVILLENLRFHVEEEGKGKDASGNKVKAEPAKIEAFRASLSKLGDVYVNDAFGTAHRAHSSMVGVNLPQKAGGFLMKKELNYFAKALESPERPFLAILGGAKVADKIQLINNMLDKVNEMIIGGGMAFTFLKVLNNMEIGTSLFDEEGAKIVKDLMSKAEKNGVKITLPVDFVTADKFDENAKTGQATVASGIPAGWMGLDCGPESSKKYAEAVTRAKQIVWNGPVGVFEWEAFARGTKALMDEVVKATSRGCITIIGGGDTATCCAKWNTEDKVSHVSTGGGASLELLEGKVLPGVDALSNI
testDetails: Caliper, Mobility shift assay off-chip
testSettings: compound 0.02 µM

{"columns": ["lineNotation", "studyTarget", "measurementUnits", "inhibition"],
 "data": [
  ["CNC(=O)c1cc(Oc2ccc(NC(=O)Nc3ccc(Cl)c(C(F)(F)F)c3)cc2)ccn1", "PGK1 (human) (UniProt P00558)", "%", -6.2],
  ["COc1cc2c(Oc3ccc4[nH]c(C)cc4c3F)ncnc2cc1OCCCN1CCCC1", "PGK1 (human) (UniProt P00558)", "%", -1.4],
  ["Cc1ccc(Nc2nccc(N(C)c3ccc4c(C)n(C)nc4c3)n2)cc1S(N)(=O)=O", "PGK1 (human) (UniProt P00558)", "%", -5.4],
  ["CNC(=O)c1ccccc1Sc1ccc2c(/C=C/c3ccccn3)n[nH]c2c1", "PGK1 (human) (UniProt P00558)", "%", -5.3]
]}

Reference source: the kinase profiling compilation of Christmann-Franck et al. (2016)
